Entries annotated with measured pIC50
- measuredTarget: Testosterone 5α-reductase
- methodSummary: Testosterone 5α-reductase inhibitory action (nuclear fraction of ventral prostate)
- conditions: rat ventral prostate nuclear fraction; [4-^14 C]-testosterone, NADPH; 60 min at 37° C
pIC50: −log10 of the molar value.
outcomeMeasure: pIC50

>>> obsvalue("COc1cc(C(=O)c2cn(CCCC(=O)O)c3ccccc23)ccc1OC(CCN1CCN(c2ccccc2OC)CC1)c1ccc(CC(C)C)cc1 (centres unmarked)")
8.85
>>> obsvalue("Cc1ccc(C(CCN2CCN(c3ccccc3OC(C)C)CC2)Oc2ccc(C(=O)c3cn(CCCC(=O)O)c4ccccc34)cc2)cc1 (centres unmarked)")
9.59
>>> obsvalue("COc1cc(C(=O)c2cn(CCCC(=O)O)c3ccccc23)ccc1O[C@@H](CCN1CCN(c2ccccc2OC)CC1)c1ccccc1")
8.17
>>> obsvalue("COc1ccccc1N1CCN(CCC(Oc2ccc(C(=O)c3cn(CCCC(=O)O)c4ccccc34)c(C)c2C)c2ccc(C)cc2)CC1 (centres unmarked)")
8.43
>>> obsvalue("COc1ccccc1N1CCN(CCC(Oc2ccc(C(=O)c3cn(CCCC(=O)O)c4ccccc34)cc2OCc2ccccc2)c2ccc(C)cc2)CC1 (centres unmarked)")
8.30
>>> obsvalue("COc1ccccc1N1CCN(CCCOc2cc(C(=O)c3cn(CCCC(=O)O)c4ccccc34)ccc2OCc2ccc(C)cc2)CC1")
8.46
>>> obsvalue("CCOc1ccccc1N1CCN(CCCOc2cc(C(=O)c3cn(CCCC(=O)O)c4ccccc34)ccc2OCc2ccc(C)cc2)CC1")
8.82
>>> obsvalue("COc1cc(C(=O)c2cn(CCCC(=O)O)c3ccccc23)ccc1OC(CCN1CCN(c2ccccc2OC(C)C)CC1)c1ccc(C)cc1 (centres unmarked)")
8.51
>>> obsvalue("COc1ccccc1N1CCN(CCCCOc2cc(C(=O)c3cn(CCCC(=O)O)c4ccccc34)ccc2OCc2ccc(C)cc2)CC1")
8.82
>>> obsvalue("CCOc1ccccc1N1CCN(CCC(Oc2ccc(C(=O)c3cn(CCCC(=O)O)c4ccccc34)cc2OC)c2ccccc2)CC1 (centres unmarked)")
8.10
>>> obsvalue("COc1cc(C(=O)c2cn(CCCC(=O)O)c3ccccc23)ccc1OC(CCN1CCN(c2ccccc2OC)CC1)c1ccc(C)cc1 (centres unmarked)")
8.43
